- method description: clinical
- recorded conditions: human, plasma, other: intranasal (IN), 4 mg, AUC0-t, One Spray 4% (w/v) IN; geometric mean (CV %)
assay metric: AUC(0-t)
Write your answer as a measured quantity: the number, then the unit.

Query: Form field: reported AUC(0-t) of C=CCN1CC[C@]23c4c5ccc(O)c4O[C@H]2C(=O)CC[C@@]3(O)[C@H]1C5 [naloxone]
Reply: 7.87 ng·h/mL

----------
- method description: clinical
- recorded conditions: human, plasma, other: intranasal, 4 mg, Cmax, Two Sprays 2% (w/v) IN; geometric mean (CV %)
assay metric: Cmax
Write your answer as a measured quantity: the number, then the unit.

Query: Form field: reported Cmax of `C=CCN1CC[C@]23c4c5ccc(O)c4O[C@H]2C(=O)CC[C@@]3(O)[C@H]1C5`
Reply: 6.2 ng/mL
